B1: PBXIP1 (parent)
chain: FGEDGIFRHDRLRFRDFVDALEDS

- Variants of: B1
- assayMethodText: protein stability index of a GFP-peptide fusion (GPS, HEK-293T) (PSI 1-6); higher = more stable;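 note: lentivirally expressed fusions sorted by FACS into six bins by GFP to DsRed ratio, PSI derived from sequencing read proportions per bin multiplied by bin number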
- conditionSet: c terminus: a fixed tail appended
measurementName: protein stability index
Lab note: record the figure alone, no unit after it.

variantLabel: G5Y
protein stability index: 2.59
--
variantLabel: R11Q
protein stability index: 3.29
--
variantLabel: R11V
protein stability index: 2.46
--
variantLabel: E22Q
protein stability index: 2.24
--
variantLabel: D10R
protein stability index: 2.15

protein stability index for `F14L` ? 2.96

protein stability index for `R13A` ? 3.13

protein stability index for `R15N` ? 3.38

protein stability index for `D4I` ? 1.73

protein stability index for `F14Q` ? 3.46

protein stability index for `L21K` ? 3.3

protein stability index for `R15W` ? 1.97
